pIC50: −log10 of the molar value.
Hi, quick share: literature pIC50 data for D(2) dopamine receptor (Homo sapiens, UniProt P14416), several sources combined.
In this scheme, each record receives a class according to its pIC50; the ranges are low end = under 6, middle = from 6 up to 7, high end = 7 and over

Lookup: Sort into band: "O=c1[nH]c2c(O)ccc([C@@H](O)CNCCCOCCNCCc3cccc(Cl)c3Cl)c2s1"
Found: low end

---
Lookup: Sort into band: "COc1ccc(-c2cccc(CN3CCN(c4ncccn4)CC3)c2)cc1"
Found: high end

Lookup: Sort into band: "O=Cc1cnn2ccc(OCCCCN3CCN(c4cccc(Cl)c4Cl)CC3)cc12"
Found: middle

Lookup: Sort into band: "COc1ccccc1-c1cccc(CN2CCN(c3ncccn3)CC2)c1"
Found: middle

Lookup: Sort into band: "COc1cccc(-c2cccc(CN3CCN(c4ncccn4)CC3)c2)c1"
Found: middle

Lookup: Sort into band: "Fc1ccc(-c2cncc(CN3CCN(c4ccccc4F)CC3)c2)cc1"
Found: high end

====

Hi, quick share: literature IC50 data for D(2) dopamine receptor (Homo sapiens), several sources combined.
In this scheme, each record receives a class according to its IC50; the ranges are LOW (below 100 nM), MID (100 nM to below 1000 nM), HIGH (1000 nM or more)

Lookup: Sort into band: "Fc1ccc(-c2cncc(CN3CCN(c4ncccn4)CC3)c2)cc1"
Found: MID

Lookup: Sort into band: CN1CCCCC1CCN1c2ccccc2Sc2ccc([S+](C)[O-])cc21 (single isomer, unassigned; 2)
Found: LOW

Lookup: Sort into band: "c1ccc(Cc2nc3c(c(Nc4ccccc4)n2)CCNCC3)cc1"
Found: MID

Lookup: Sort into band: CN(C)CC1CC2c3ccccc3Cc3ccncc3N2O1 (stereo not given)
Found: HIGH

Lookup: Sort into band: "Cc1nc(C(=O)NCCCN2CCN(c3cccc(Cl)c3Cl)CC2)c(C)n1-c1ccccc1"
Found: HIGH

---
Lookup: Sort into band: CN(C)CC1CC2c3ccccc3Cc3ccccc3N2O1 (stereo in doubt; 2a)
Found: MID

Lookup: Sort into band: "Fc1cccc(Nc2nc(Cc3ccccc3)nc3c2CCNCC3)c1"
Found: LOW

Lookup: Sort into band: "Fc1ccc(-c2cncc(CN3CCN(c4ccccc4)CC3)c2)cc1"
Found: LOW

====

Hi, quick share: literature IC50 data for UniProtKB P14416, several sources combined.
Just the number please, in nM, no unit attached.

// recorded IC50 for "CCOc1ccccc1N1CCN(CCCC(=O)NCc2nc3ccc(F)cc3c(=O)n2-c2ccccc2)CC1" : 1000

---
// recorded IC50 for "O=c1[nH]c2c(O)ccc(CCNCCS(=O)(=O)CCCOCCc3ccccc3)c2s1" : 100

// recorded IC50 for "Fc1ccc(-c2cccc(CN3CCN(c4ncccn4)CC3)c2)cc1" : 49

// recorded IC50 for "Cc1nc(C(=O)NCCN2CCN(c3cccc(Cl)c3Cl)CC2)c(C)n1-c1ccccc1" : 908

// recorded IC50 for CN(C)CCC1CC2c3ccccc3Cc3ccccc3N2O1 (configuration not stated) : 9550

// recorded IC50 for "O=C(CCCN1CCN(c2cccc(C(F)(F)F)c2)CC1)NCc1nc2cc(F)ccc2c(=O)n1-c1ccccc1" : 6600
